tgt: Insulin-like growth factor 1 receptor (Homo sapiens, UniProt P08069)
Sequence (P08069 31-736 limits assumed): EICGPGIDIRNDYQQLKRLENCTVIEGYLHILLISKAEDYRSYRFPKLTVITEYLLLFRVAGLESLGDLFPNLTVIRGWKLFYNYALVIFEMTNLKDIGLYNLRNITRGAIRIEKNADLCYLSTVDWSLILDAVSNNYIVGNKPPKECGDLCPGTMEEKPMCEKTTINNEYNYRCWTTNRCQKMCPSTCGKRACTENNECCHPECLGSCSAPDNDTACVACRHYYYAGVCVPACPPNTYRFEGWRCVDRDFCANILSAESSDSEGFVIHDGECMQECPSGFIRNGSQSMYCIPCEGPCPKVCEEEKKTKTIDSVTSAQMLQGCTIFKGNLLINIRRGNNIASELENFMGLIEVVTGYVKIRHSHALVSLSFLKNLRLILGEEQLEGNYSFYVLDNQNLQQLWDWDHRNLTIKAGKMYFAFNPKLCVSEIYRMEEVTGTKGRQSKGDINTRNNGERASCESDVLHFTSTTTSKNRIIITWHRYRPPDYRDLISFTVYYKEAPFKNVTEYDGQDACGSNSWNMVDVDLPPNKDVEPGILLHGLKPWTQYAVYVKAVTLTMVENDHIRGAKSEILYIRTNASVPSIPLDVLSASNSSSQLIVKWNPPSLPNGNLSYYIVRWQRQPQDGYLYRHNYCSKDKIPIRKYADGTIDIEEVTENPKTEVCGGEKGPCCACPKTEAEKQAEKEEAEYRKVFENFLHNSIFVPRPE
Sequence (P08069 741-1367 limits assumed): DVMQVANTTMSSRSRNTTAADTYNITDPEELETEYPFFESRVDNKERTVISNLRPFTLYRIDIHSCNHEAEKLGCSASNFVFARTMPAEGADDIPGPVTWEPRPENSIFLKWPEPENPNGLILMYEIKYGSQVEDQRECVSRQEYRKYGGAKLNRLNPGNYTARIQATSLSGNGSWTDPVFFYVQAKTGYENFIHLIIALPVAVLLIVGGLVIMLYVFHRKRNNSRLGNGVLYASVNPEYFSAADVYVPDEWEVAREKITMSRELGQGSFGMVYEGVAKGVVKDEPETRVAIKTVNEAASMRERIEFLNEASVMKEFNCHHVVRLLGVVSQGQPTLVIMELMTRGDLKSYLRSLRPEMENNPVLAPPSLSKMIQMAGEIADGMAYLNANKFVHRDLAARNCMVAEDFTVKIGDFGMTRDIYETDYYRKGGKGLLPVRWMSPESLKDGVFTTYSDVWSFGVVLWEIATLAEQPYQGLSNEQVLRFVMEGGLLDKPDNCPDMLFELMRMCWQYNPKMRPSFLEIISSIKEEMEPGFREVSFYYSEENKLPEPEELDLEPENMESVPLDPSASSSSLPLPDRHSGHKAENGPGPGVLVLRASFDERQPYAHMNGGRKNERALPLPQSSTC
pIC50: −log10 of the molar value.
observed_property: pIC50

>>> test_value("O=C1CNCC2=C1C(c1ccccc1F)c1c[nH]nc1N2 (racemic)")
"< 4.70"

* * *

test_method_notes: in vitro
condition_info: human, Caco-2
Description: Permeability across human Caco2 cells
observed_property: Papp (×10⁻⁶ cm/s)

>>> test_value("CCOC(=O)c1[nH]cc2c1NC1=C(C(=O)CCC1)[C@H]2c1cccc(Oc2nc3ccccc3[nH]2)c1")
6

* * *

tgt: Cytochrome P450 3A4 (Homo sapiens)
Sequence (P08684 whole entry): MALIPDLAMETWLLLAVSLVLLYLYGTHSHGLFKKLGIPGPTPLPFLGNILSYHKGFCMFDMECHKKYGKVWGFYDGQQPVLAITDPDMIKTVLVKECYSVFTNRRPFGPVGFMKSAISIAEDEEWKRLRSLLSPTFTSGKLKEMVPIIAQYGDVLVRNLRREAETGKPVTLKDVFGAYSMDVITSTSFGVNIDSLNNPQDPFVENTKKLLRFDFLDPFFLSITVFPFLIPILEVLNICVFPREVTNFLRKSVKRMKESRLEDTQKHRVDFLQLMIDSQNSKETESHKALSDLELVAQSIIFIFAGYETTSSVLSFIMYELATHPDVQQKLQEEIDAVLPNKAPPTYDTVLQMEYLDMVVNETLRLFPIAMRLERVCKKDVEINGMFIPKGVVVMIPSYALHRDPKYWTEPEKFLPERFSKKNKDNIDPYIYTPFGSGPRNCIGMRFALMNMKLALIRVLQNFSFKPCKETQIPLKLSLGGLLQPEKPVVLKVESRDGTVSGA
observed_property: Ki (nM)

>>> test_value("CCOC(=O)c1[nH]cc2c1NC1=C(C(=O)CCC1)[C@H]2c1cccc(Oc2nc3ccccc3[nH]2)c1")
990
